Molecular target: T1, Ab0787
T1 construct: Fab, His-Tag, Avi-Tag; Ab0785 + HC I50M; also called LS2A R3M2; Ab787
Assay: BLI 1-pt +indinavir
# Kd annotations
Lab book: enter the figure in nM, no units written.

binder	observed result
Ab0958 (antibody, V domains shown, also called LS2B R6M27) VH: EVQLVESGGGLVQPGGSLRLSCAASGFDFSSYSIHWVRQAPGKGLEWVASISPYYGSTYYADSVKGRFTISADTSKNTAYLQMNSLRAEDTAVYYCARYYEWYKYDLYLGSLGFDYWGQGTLVTVSS VL: DIQMTQSPSSLSASVGDRVTITCRASQSVSSAVAWYQQKPGKAPKLLIYSASSLYSGVPSRFSGSRSGTDFTLTISSLQPEDFATYYCQQGGYSLIAFGQGTKVEIK	42

Now examine the next entry.
Query: Please list Kd recorded for the binder Ab0941 (antibody, V domains shown, also called LS2B R6M7) VH: EVQLVESGGGLVQPGGSLRLSCAASGFDFSSYSIHWVRQAPGKGLEWVASISPYYGATYYADSVKGRFTISADTSKNTAYLQMNSLRAEDTAVYYCARYYEWYKYDLYLGSLGFDYWGQGTLVTVSS VL: DIQMTQSPSSLSASVGDRVTITCRASQSVSSAVAWYQQKPGKAPKLLIYSASSLYSGVPSRFSGSRSGTDFTLTISSLQPEDFATYYCQQGGYSLITFGQGTKVEIK
Result: 49
